testParameters: human gut metagenome, 24 h, 2 µM; note: call rule not given here

compound	Bacterial Biotransformation
COc1cc(C(=O)NCc2ccc(OCCN(C)C)cc2)cc(OC)c1OC [TRIMETHOBENZAMIDE]	Compound NOT metabolized
CN(C)C(=O)Oc1cccc([N+](C)(C)C)c1.[Br-] [NEOSTIGMINE BROMIDE]	Compound NOT metabolized
CC1Cc2ccccc2N1NC(=O)c1ccc(Cl)c(S(N)(=O)=O)c1 (stereo not drawn) [INDAPAMIDE]	Compound NOT metabolized
CCN(CC)CCNC(=O)c1cc(S(C)(=O)=O)ccc1OC [TIAPRIDE]	Compound NOT metabolized
COCCCC/C(=N\OCCN)c1ccc(C(F)(F)F)cc1.O=C(O)/C=C\C(=O)O [FLUVOXAMINE MALEATE]	Compound NOT metabolized
CC(=O)OCC(=O)[C@@]1(OC(C)=O)[C@@H](C)C[C@H]2[C@@H]3C[C@H](F)C4=CC(=O)C=C[C@]4(C)[C@@]3(F)[C@@H](O)C[C@@]21C [DIFLORASONE DIACETATE]	Compound metabolized
Br.COc1ccc2c(c1)[C@]13CCCC[C@@H]1[C@H](C2)N(C)CC3.O [DEXTROMETHORPHAN HYDROBROMIDE]	Compound metabolized
O=C([O-])C[C@H](O)C[C@H](O)/C=C/c1c(C2CC2)nc2ccccc2c1-c1ccc(F)cc1.O=C([O-])C[C@H](O)C[C@H](O)/C=C/c1c(C2CC2)nc2ccccc2c1-c1ccc(F)cc1.[Ca+2]	Compound metabolized
